Hi there, I'd appreciate the recorded Rescue concentration, Imi (1) for every entry that follows.
# Test system: Klebsiella pneumoniae ATCC 49472
# Test name: Rescue concentration, modified checkerboard MIC adjuvant assay
# Assay type: cell-based
# Condition description: K. pneumoniae ATCC 49472; Imi at susceptible breakpoint 1 μg mL^−1
Give bare numbers, in µg/mL.

Record Rescue concentration, Imi (1) for all entries; do not skip any.
1. Oc1ccc(C(c2c[nH]c3cnccc23)c2c[nH]c3cnccc23)cc1 [SP-6azaBIM 136]
2. Brc1ccc(C(c2c[nH]c3cnccc23)c2c[nH]c3cnccc23)cc1 [SP-6azaBIM 125]

Solution:
1. 16
2. 2

* * *

# System: MRSA
# Test name: Rescue concentration of substituted phenyl azaindole derivatives
# Format: cell-based, Staphylococcus aureus
# Condition description: Amoxicillin fixed at 2 μg/mL
Quick rule for you: Rescue concentration, MRSA Amoxicillin (2 μg/mL) at 8 µg/mL or higher means Yes, lower means No.

Field: example entries. Status: answers known.
| Compound | Class name |
| --- | --- |
| OC(c1cccc(Br)c1)c1c[nH]c2cnccc12 (centres unmarked) | No |
| COc1ccc(C(O)c2c[nH]c3cnc(Br)cc23)cc1OC (centres unmarked) | No |
| O=[N+]([O-])c1cccc(C(O)c2c[nH]c3c(Cl)nc(Br)cc23)c1 (centres unmarked) | Yes |

Exercise: Record O=[N+]([O-])c1cccc(C(O)c2c[nH]c3cnccc23)c1 (centres unmarked) ; criterion: Rescue concentration, MRSA Amoxicillin (2 μg/mL) no lower than 8 µg/mL. Met?
Solution: Yes

Exercise: Record OC(c1ccc(Br)cc1)c1c[nH]c2cnc(Br)cc12 (centres unmarked) ; criterion: Rescue concentration, MRSA Amoxicillin (2 μg/mL) no lower than 8 µg/mL. Met?
Solution: No

* * *

# System: Enterobacter cloacae ATCC BAA-1143
# Test name: Rescue concentration, modified checkerboard MIC adjuvant assay
# Assay type: cell-based
# Condition description: E. cloacae ATCC BAA-1143; Tet at susceptible breakpoint 4 μg mL^−1
Hi there, I'd appreciate the recorded Rescue concentration, Tet (4) for every entry that follows.

Known results for molecules:
| Molecule | Assay system | Observed value |
| --- | --- | --- |
| Oc1ccc(C(c2c[nH]c3cnccc23)c2c[nH]c3cnccc23)cc1 [SP-6azaBIM 136] | Enterobacter cloacae ATCC BAA-1143 | 4 µg/mL |
| Brc1ccc(C(c2c[nH]c3cnccc23)c2c[nH]c3cnccc23)cc1 [SP-6azaBIM 125] | Enterobacter cloacae ATCC BAA-1143 | >128 µg/mL |
| Oc1ccc(C(c2c[nH]c3ncccc23)c2c[nH]c3ncccc23)cc1 [SP-7azaBIM 135] | Enterobacter cloacae ATCC BAA-1143 | >128 µg/mL |

Could you now look at the following molecule, please?
Considering Brc1ccc(C(c2c[nH]c3ncccc23)c2c[nH]c3ncccc23)cc1 [SP-7azaBIM 126] , its Rescue concentration, Tet (4) with Enterobacter cloacae ATCC BAA-1143 was recorded as >128 µg/mL

* * *

# System: MRSA
# Test name: Rescue concentration of substituted phenyl azaindole derivatives
# Type: cell-based, Staphylococcus aureus
# Condition description: Amoxicillin fixed at 2 μg/mL
Measurement label: Rescue concentration, MRSA Amoxicillin (2 μg/mL) (µg/mL)
Answers are plain numbers, in µg/mL.

| Compound | Observed value |
| --- | --- |
| O=[N+]([O-])c1cccc(C(O)c2c[nH]c3c(Cl)nccc23)c1 (centres unmarked) [3NO2-7Cl-6aza] | 32 |
| Oc1ccc(C(c2c[nH]c3ncc(Cl)cc23)c2c[nH]c3ncc(Cl)cc23)cc1 [4OH-Bis 5Cl 7aza] | 2 |
| O=[N+]([O-])c1ccc(C(O)c2c[nH]c3cnc(Br)cc23)cc1 (centres unmarked) [4NO2-5Br-6aza-OH] | 32 |
| O=[N+]([O-])c1ccc(C(O)c2c[nH]c3ncc(Cl)cc23)cc1 (centres unmarked) [4NO2-5Cl-7aza-OH] | 32 |
| O=[N+]([O-])c1ccc(C(O)c2c[nH]c3c(Cl)nc(Br)cc23)cc1 (centres unmarked) [4NO2-5Br-7Cl-6aza-OH] | 16 |

Record Rescue concentration, MRSA Amoxicillin (2 μg/mL) for all entries; do not skip any.
1. Oc1ccc(C(c2c[nH]c3cnccc23)c2c[nH]c3cnccc23)cc1 [SP-6azaBIM 136]
2. OC(c1ccc(Br)cc1)c1c[nH]c2cnccc12 (centres unmarked) [Compound 4Br-6aza-OH]

Solution:
1: 8; 2: 32

These entries and their values trace back to patent US20230382926A1.
